Sourced from paper PMC4622456

Target: recombinant human IL23 (human, UniProt Q9NPF7;P29460)
Sequence (Q9NPF7 20-189, chain 1 of 2): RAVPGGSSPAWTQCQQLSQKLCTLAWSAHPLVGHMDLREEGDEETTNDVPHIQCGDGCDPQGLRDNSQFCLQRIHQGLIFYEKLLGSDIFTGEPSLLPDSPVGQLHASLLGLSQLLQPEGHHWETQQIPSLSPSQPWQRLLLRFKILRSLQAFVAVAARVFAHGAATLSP
Sequence (P29460 23-328, chain 2 of 2): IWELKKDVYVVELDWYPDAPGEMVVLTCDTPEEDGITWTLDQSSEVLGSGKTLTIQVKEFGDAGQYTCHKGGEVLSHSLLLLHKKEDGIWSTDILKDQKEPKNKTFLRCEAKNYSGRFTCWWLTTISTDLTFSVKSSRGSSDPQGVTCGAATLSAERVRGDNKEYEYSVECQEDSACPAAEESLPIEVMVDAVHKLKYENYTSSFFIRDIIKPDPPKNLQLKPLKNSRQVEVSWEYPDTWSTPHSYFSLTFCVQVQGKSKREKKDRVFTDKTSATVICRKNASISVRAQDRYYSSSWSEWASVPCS
Assay: cell-based or functional assay
QUANTITY MEASURED: Inhibition of IL23 induced IL17 production in mouse splenocytes (IC50, pM)
Numbers only; they are read as pM.

Reported Inhibition of IL23 induced IL17 production in mouse splenocytes (IC50, pM) for 15C11 (antibody, V domains shown) VH: EVQLQQSGPVLVKPGASVKMSCKASGYTFTDYYMNWVKQSHGKSLEWIGVIIPYNGGTSYNQKFKGKATLTVDKSSSTAYMELNSLTSEDSAVYYCARDGHRWYFDVWGTGTTVTVSS VL: DVVMTQTPLSLPVSLGDQASISCRSSQSLVHSNGNTYLHWYLQKPGQSPKLLIYKVSNRFSGVPDRFSGSGSGTDFTLKINRVEAEDLGVYFCSQSTHVPYTFGGGTQLEIK : what is it?
197

Reported Inhibition of IL23 induced IL17 production in mouse splenocytes (IC50, pM) for mouse 6B8 (antibody, V domains shown) VH: QVQLQQSDAELVKPGTSVKTSCKISGNTFTDQTIHWMKQRPEQGLEWIGYIYPRDDSPKYNENFKGKATLTADKSSSTAYMQLNSLTSEDSAVYFCAIPDRSGYAWFIYWGQGTLVTVSS VL: DIVMTQSHKFLSTSVGDRVTITCKASRDVAIAVAWYQQKPGQSPKLLLFWASTRHTGVPDRFTGSGSRTDFTLTISNVQSEDLADYFCHQYSSYPFTFGSGTKLEIK : what is it?
8
